# Experimental Target: FPR1 (Homo sapiens)
# Sequence (P21462 1-350): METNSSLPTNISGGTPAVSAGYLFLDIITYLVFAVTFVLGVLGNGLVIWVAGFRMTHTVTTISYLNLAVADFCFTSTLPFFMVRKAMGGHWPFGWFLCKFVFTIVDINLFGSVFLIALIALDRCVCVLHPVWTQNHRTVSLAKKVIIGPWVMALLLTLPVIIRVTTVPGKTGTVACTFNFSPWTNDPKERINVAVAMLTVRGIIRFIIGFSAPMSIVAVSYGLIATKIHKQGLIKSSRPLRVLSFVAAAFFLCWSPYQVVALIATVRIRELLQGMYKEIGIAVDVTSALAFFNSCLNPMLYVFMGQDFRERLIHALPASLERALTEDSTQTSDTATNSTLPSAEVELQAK
# Method Notes: fMLF-induced Ca2+ flux in human neutrophils
Value Type: IC50 (µM)

Molecule | Value Type | Data Value
CCCCN1C(=O)C(O)=C(C(=O)c2ccc(OC)cc2)C1c1ccc(C)cc1 (stereo not drawn) | IC50 | 26.7

I. COc1ccccc1C1C(C(=O)c2ccc(C)cc2)=C(O)C(=O)N1CC(C)O (stereo not drawn)
II. COCCN1C(=O)C(O)=C(C(=O)c2ccccc2)C1c1cc(OC)ccc1OC (stereo not drawn)
[in] Higher IC50: I or II ? Mark your selection by writing its label.
[out] I
(I: 12.4 µM, II: 6.7 µM)

----------
# Experimental Target: FPR2 (Homo sapiens, UniProt P25090)
# Sequence (P25090 whole entry): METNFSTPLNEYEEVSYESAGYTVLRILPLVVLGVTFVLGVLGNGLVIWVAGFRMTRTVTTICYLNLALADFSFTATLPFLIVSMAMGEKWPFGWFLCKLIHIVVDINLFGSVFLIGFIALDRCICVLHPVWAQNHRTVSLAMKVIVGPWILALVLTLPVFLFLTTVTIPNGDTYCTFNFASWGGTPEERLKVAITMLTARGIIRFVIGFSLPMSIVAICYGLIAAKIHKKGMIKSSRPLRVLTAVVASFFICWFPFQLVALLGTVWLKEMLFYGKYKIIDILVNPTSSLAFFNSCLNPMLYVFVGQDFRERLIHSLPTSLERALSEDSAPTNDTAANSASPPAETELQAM
# Method Notes: Ca2+ mobilization in FPR2-HL60 cells
Value Type: IC50 (µM)
Numbers only here, please. The scale is µM.

Looking up CCCCCCN1C(=O)C(O)=C(C(=O)c2ccc(C)cc2)C1c1ccc(OC)cc1OC (stereo not shown) , I see its IC50 listed as 6.5

----------
# Experimental Target: FPR1 (Homo sapiens, UniProt P21462)
# Sequence (P21462 1-350): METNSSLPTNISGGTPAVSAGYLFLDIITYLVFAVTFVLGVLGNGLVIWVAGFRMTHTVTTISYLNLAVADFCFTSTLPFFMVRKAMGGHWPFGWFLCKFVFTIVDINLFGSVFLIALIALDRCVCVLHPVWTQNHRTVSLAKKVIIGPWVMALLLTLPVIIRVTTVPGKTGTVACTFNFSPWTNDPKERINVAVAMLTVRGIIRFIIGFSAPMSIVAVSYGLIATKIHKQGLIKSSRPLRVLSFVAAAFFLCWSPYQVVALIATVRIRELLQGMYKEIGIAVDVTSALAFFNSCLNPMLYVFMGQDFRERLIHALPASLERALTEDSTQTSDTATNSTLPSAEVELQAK
# Method Notes: fMLF-induced Ca2+ flux in human neutrophils
Value Type: IC50 (µM)

Below, 2 compounds whose answers are already recorded.
Compound | IC50, µM
CCCCCCN1C(=O)C(O)=C(C(=O)c2ccccc2)C1c1ccc(O)c(OC)c1 (stereo not shown) | 4.8
COCCN1C(=O)C(O)=C(C(=O)c2ccc(C)cc2)C1c1cc(OC)ccc1OC (stereo not shown) | 5.2

1. CCCCCCN1C(=O)C(O)=C(C(=O)c2ccc(C)cc2)C1c1ccc(OC)cc1OC (stereo not shown)
2. CCCN1C(=O)C(O)=C(C(=O)c2ccccc2)C1c1cc(OC)ccc1OC (stereo not shown)
[in] Higher IC50: 1 or 2 ? Mark your selection by writing its label.
[out] 2

FYI, the data here is from paper PMC5607094.
